Each recorded value in this set is attributed to BigSolDB 2.1.

EXPERIMENTAL CONDITIONS: in isopropanol, 320.4 K
MEASURED QUANTITY: solubility (mole fraction)
Provide a numeric answer; units are not to be included.

Request: Consider the compound CC(=O)Oc1ccccc1C(=O)O and give its measured solubility (mole fraction).
Response: 0.118

###

EXPERIMENTAL CONDITIONS: in isopropanol, 291.8 K
MEASURED QUANTITY: solubility (mole fraction)

Request: Dear colleague, I am looking for the recorded solubility (mole fraction) of the following compound: CC(=O)Oc1ccccc1C(=O)O
Response: 0.032

###

EXPERIMENTAL CONDITIONS: in ethanol, 276.3 K
MEASURED QUANTITY: solubility (mole fraction)

Request: What measured solubility (mole fraction) goes with CC(=O)Oc1ccccc1C(=O)O ?
Response: 0.025

###

EXPERIMENTAL CONDITIONS: in isopropanol, 312.9 K
MEASURED QUANTITY: solubility (mole fraction)
Reply: number alone, nothing else.

Request: Entry CC(=O)Oc1ccccc1C(=O)O : reported solubility (mole fraction) = ?
Response: 0.091

###

EXPERIMENTAL CONDITIONS: in ethanol, 333.4 K
MEASURED QUANTITY: solubility (mole fraction)
Lab note: record the figure alone, no unit after it.

Request: Which solubility (mole fraction) is listed for CC(=O)Oc1ccccc1C(=O)O ?
Response: 0.187

###

EXPERIMENTAL CONDITIONS: in ethanol, 330.4 K
MEASURED QUANTITY: solubility (mole fraction)
Form: value (number only, do not type unit).

Request: Return reported solubility (mole fraction); argument: CC(=O)Oc1ccccc1C(=O)O
Response: 0.17

###

EXPERIMENTAL CONDITIONS: in propylene glycol, 330.7 K
MEASURED QUANTITY: solubility (mole fraction)
The reply should be a number, written without any unit.

Request: Using the record for CC(=O)Oc1ccccc1C(=O)O , report its solubility (mole fraction).
Response: 0.126

###

EXPERIMENTAL CONDITIONS: in ethanol, 310 K
MEASURED QUANTITY: solubility (mole fraction)
# respond with the number and nothing more

Request: Reported solubility (mole fraction) for CC(=O)Oc1ccccc1C(=O)O : what is it?
Response: 0.093

###

EXPERIMENTAL CONDITIONS: in acetone, 315.3 K
MEASURED QUANTITY: solubility (mole fraction)
Answer with the value's number alone.

Request: Consider the molecule CC(=O)Oc1ccccc1C(=O)O and give its measured solubility (mole fraction).
Response: 0.127

###

EXPERIMENTAL CONDITIONS: in propylene glycol, 295.7 K
MEASURED QUANTITY: solubility (mole fraction)
When you answer, write just the number.

Request: Entry under review: CC(=O)Oc1ccccc1C(=O)O . Reported solubility (mole fraction)?
Response: 0.017

###

EXPERIMENTAL CONDITIONS: in propylene glycol, 301.1 K
MEASURED QUANTITY: solubility (mole fraction)
# output: bare number, no unit

Request: For the compound CC(=O)Oc1ccccc1C(=O)O , what solubility (mole fraction) is on record?
Response: 0.025

###

EXPERIMENTAL CONDITIONS: in isopropanol, 316.1 K
MEASURED QUANTITY: solubility (mole fraction)

Request: Name the reported solubility (mole fraction) value associated with the compound CC(=O)Oc1ccccc1C(=O)O
Response: 0.102
